# experimental system: mouse melanocortin 4 receptor (mouse, UniProt P56450 1-332)
# Sequence (P56450 whole entry): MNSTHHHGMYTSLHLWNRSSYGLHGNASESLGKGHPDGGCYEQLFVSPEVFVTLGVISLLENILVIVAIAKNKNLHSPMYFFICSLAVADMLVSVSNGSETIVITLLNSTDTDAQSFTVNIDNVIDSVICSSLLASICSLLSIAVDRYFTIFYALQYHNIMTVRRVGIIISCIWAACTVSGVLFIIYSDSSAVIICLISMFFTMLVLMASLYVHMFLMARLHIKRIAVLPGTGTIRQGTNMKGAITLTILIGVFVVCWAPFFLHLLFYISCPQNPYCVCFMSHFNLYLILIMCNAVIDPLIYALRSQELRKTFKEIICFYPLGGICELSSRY
# test method notes: cell-based or functional assay
Square brackets hold non-standard residues; d marks the D form. Dap = NC[C@H](N)C(=O)O
# reported pA2 (Schild analysis, agonist NDP-MSH, cAMP); entries follow
Number, no unit, nothing else.

Solved entries:
binder	measured result
cyclo(PRFFNVF[dP]) (Ala115Val SNP in the Asn scaffold; also called c[Pro-Arg-Phe-Phe-Asn-Val-Phe-DPro]) [ZMK 2-82]	7.2
cyclo(PHFF[Dap]AF[dP]) (Arg111His SNP in the Dap scaffold; also called c[Pro-His-Phe-Phe-Dap-Ala-Phe-DPro]) [ZMK 2-99]	6
cyclo(PRYFNAF[dP]) (Phe112Tyr SNP in the Asn scaffold; also called c[Pro-Arg-Tyr-Phe-Asn-Ala-Phe-DPro]) [ZMK 2-110]	6.1
cyclo(PHFFNAF[dP]) (Arg111His SNP in the Asn scaffold; also called c[Pro-His-Phe-Phe-Asn-Ala-Phe-DPro]) [ZMK 2-96]	5.3

Name the reported pA2 (Schild analysis, agonist NDP-MSH, cAMP) value associated with the binder cyclo(PRYF[Dap]AF[dP]) (Phe112Tyr SNP in the Dap scaffold; also called c[Pro-Arg-Tyr-Phe-Dap-Ala-Phe-DPro]) [ZMK 2-112]
7.3
